Test: qHTS RealTime-Glo MT Cell Viability Assay in HEK293 cells - 24 hour (AID 1224886); further: top concentration of the series differs between compounds; nearly all actives have a fitted effect of over 50% in size
Settings: RealTime-Glo luminescence; series mostly up to 76.8 µM
From the text: National Center for Advancing Translational Sciences [NCATS] NIH Chemical Genomics Center [NCGC] U.S. Environmental Protection Agency [EPA] National Institutes of Environmental Health Sciences [NIEHS] National Toxicology Program [NTP] U.S. Food and Drug Administration [FDA] Measure of cell viability is critical in the cell-base assay. Analysis of cell viability is necessary for the characterization of cell responses to cytotoxic drugs and environmental stress. […]
Records with an inconclusive call do not appear. The source made the active and inactive calls. The call rests on the fitted dose curve; in most records, active means well fitted cell-killing curve with a large enough effect in the repeat runs; inconclusive means weak or mixed curves, or effect the other way; inactive means flat fitted curve, though single readings scatter.
observedProperty: outcome

Solved cases below.
INSERT INTO results (smi, reported) VALUES
  ('NC(=O)OCC(COC(N)=O)c1ccccc1', 'inactive'),
  ('NC(=O)NO', 'inactive'),
  ('COc1ccccc1O', 'inactive'),
  ('CCN1CCCC1=O', 'inactive'),
  ('CCN(CC)CCOC(=O)c1ccc(N)cc1', 'inactive'),
  ('COC1=CC(=O)C[C@@H](C)[C@]12Oc1c(Cl)c(OC)cc(OC)c1C2=O', 'inactive'),
  ('C=CCOC(=O)CC(C)C', 'inactive');

Turning to the following compound.
Could you tell me which outcome is on file for `COc1cc(C=O)ccc1O` ?
inactive

----------
assay: Caspase-3/7 induction in HepG2 cells by small molecules, qHTS assay (AID 1346978); conditions: HepG2 caspase-3/7 activation, Caspase-Glo luminescence, 17 h; series mostly up to 92.4 µM; further: nearly all actives have a fitted effect of over 15% in size
Records with an inconclusive call do not appear. The source made the active and inactive calls. Calls come from the whole dose curve; as a rule, active = well fitted activation curve with a large enough effect in the repeat runs; inconclusive = weak or mixed curves; inactive = flat fitted curve, though single readings scatter.
observedProperty: outcome

Solved cases below.
INSERT INTO assay_data (molecule, observedproperty, reported) VALUES
  ('CCCCCCCCCCCCCC(=O)OC(C)C', 'outcome', 'inactive'),
  ('O=[N+]([O-])c1ccc(O)cc1', 'outcome', 'inactive'),
  ('CC(=O)Oc1ccccc1C(=O)O', 'outcome', 'inactive'),
  ('O=c1cc[nH]c(=O)[nH]1', 'outcome', 'inactive'),
  ('COC(=O)c1ccc(O)cc1', 'outcome', 'inactive');

Could you tell me which outcome is on file for `O=C(OCc1ccccc1)c1ccccc1` ?
inactive

Could you tell me which outcome is on file for `Nc1ccc(N=Nc2ccccc2)c(N)n1` ?
inactive

Could you tell me which outcome is on file for `Cc1c(N(C)CS(=O)(=O)O)c(=O)n(-c2ccccc2)n1C` ?
inactive

Could you tell me which outcome is on file for `O=C1CCCCCN1` ?
inactive

Could you tell me which outcome is on file for CCCCCCCCCCCCCCCCCC(=O)OCC(O)CO (stereo not given) ?
inactive

Could you tell me which outcome is on file for `COc1ccc(O)cc1` ?
inactive

Could you tell me which outcome is on file for `Cc1c(N(C)C)c(=O)n(-c2ccccc2)n1C` ?
inactive

Could you tell me which outcome is on file for `Cn1cnc2c1c(=O)[nH]c(=O)n2C` ?
inactive

----------
Biological target: Peroxisome proliferator-activated receptor gamma (Homo sapiens)
Experiment: qHTS assay to identify small molecule antagonists of the peroxisome proliferator-activated receptor gamma (PPARg) signaling pathway (AID 743191); further: nearly all actives have a fitted effect of over 30% in size
Conditions: HEK293H PPARg-UAS-bla, beta-lactamase ratio, antagonist, 17 h; series mostly up to 62.6 µM
Excerpt: U.S. Tox21 Program National Center for Advancing Translational Sciences [NCATS] NIH Chemical Genomics Center [NCGC] U.S. Environmental Protection Agency [EPA] National Institutes of Environmental Health Sciences [NIEHS] National Toxicology Program [NTP] U.S. Food and Drug Administration [FDA] […]
Results filed as inconclusive are left out. Calls of active or inactive are those of the source. The call rests on the fitted dose curve.
Give your call using only these classes: y (active), n (inactive)

INSERT INTO assay_data (compound, assignedcategory) VALUES
  ('CCn1cc(C(=O)O)c(=O)c2ccc(C)nc21', 'n'),
  ('O=C(O)Cc1cccc2ccccc12', 'n'),
  ('COC1=CC(=O)C[C@@H](C)[C@]12Oc1c(Cl)c(OC)cc(OC)c1C2=O', 'y'),
  ('CC(C)(C)NCC(O)c1ccc(O)c(CO)c1 (stereo not drawn)', 'n'),
  ('Oc1cccc(O)c1', 'n');

Dear all, I need the recorded test outcome for `O=C(O)CN(CC(=O)O)CC(=O)O` , thank you.
n

Dear all, I need the recorded test outcome for `C=CCOC(=O)CC(C)C` , thank you.
n

Dear all, I need the recorded test outcome for `Nc1cccc(N)c1` , thank you.
n

Value source: PubChem BioAssay (Tox21)
